ASSAY EXPLANATION: yeast display, Sf9 membrane polyspecificity reagent, FACS + sequencing; frameworks hold sequencing errors
MEASUREMENT LABEL: polyreactivity (PSR sort gate)

Here's what some known entries look like.
| POLYMER SEQUENCE | RESULT |
| --- | --- |
| QVQLVESGGGLDQAGGSLRLSCAASGSIFPDYAMGWYIPAPGKERELVAAITWSGGNTYYADSVKGRFTISRDNAKNTVYLQMNSLKPEDTAVYYCAADISLHWYYYRRYNYWGQGTQVTVSS | low polyreactivity |
| QVQLVESGGGLVQAGGSLRLSCAASGFIFGNNDMGWYRQAPGKERELVAGITWSGSSTYYADSVKGRFTISRDNAKNTVYLQMNSLKPEDTAVYYCNRVFTWRYGYRYEYWGQGTQVTVSS | high polyreactivity |
| QVQHVESGRGLVQAGGSLRLSCPASGSTFSYYAMGWYRQAPGKERELVASISSTTGSTYYADSVKGRFTISRDNAKNTVYVKMNSVKPEDTAVYYCAADIPPGGGDYWGQGSQVTVSS | low polyreactivity |
| QVQLVESGGGLVQAGGSLRLSCAASGLTFQYYTMGWYRQAPGKERELVAAINWSGGSTYYADSVKGRFTISRDNAKNTVYLQMNSLKPVDTAVYYCNAVRFVEHDYWGQGTQVTVSS | high polyreactivity |

Now take the following sequence into account.
polyreactivity (PSR sort gate) for `QVQLVESGGGLVQAGGSLRLSCAASGITFWTYAMGWYRQAPGKERELVARISKSGARTFYADSVKGRFTLSRDNAKNTVYLQMNSLKPEDTAVYYCAADFRSNYDYWGQGTQVTVSS` is high polyreactivity
